The measurements presented in this section are drawn from ChEMBL document CHEMBL6153032.

Tested on: Protein cereblon/Androgen receptor (Homo sapiens), P10275+Q96SW2 [UNDEFINED MUTATION]
Sequence (P10275 whole entry, looked up, change not shown): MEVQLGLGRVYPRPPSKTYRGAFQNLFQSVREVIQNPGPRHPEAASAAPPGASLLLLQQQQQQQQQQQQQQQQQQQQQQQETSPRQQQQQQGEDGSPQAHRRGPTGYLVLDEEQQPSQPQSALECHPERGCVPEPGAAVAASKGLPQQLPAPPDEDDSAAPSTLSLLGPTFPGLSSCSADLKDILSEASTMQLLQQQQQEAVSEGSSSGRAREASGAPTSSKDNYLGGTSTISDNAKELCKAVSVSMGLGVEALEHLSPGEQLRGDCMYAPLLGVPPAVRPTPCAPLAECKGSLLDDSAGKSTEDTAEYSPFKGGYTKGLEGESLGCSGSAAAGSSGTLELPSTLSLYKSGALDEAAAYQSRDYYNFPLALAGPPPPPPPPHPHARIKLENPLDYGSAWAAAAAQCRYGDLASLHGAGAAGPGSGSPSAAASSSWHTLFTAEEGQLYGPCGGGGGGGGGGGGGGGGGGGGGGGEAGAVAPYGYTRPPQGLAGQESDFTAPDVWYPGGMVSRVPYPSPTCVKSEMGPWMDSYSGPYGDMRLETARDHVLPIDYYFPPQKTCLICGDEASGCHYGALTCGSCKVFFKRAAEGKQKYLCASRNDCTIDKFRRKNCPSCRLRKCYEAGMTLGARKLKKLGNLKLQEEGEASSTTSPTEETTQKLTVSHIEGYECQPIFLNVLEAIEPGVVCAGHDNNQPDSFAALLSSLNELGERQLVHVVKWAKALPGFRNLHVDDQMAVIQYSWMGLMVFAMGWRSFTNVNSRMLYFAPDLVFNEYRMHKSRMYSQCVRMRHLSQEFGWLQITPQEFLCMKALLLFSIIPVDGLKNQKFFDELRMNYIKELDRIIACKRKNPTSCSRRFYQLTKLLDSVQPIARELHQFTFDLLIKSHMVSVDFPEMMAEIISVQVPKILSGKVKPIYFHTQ
Sequence (Q96SW2 whole entry, looked up, change not shown): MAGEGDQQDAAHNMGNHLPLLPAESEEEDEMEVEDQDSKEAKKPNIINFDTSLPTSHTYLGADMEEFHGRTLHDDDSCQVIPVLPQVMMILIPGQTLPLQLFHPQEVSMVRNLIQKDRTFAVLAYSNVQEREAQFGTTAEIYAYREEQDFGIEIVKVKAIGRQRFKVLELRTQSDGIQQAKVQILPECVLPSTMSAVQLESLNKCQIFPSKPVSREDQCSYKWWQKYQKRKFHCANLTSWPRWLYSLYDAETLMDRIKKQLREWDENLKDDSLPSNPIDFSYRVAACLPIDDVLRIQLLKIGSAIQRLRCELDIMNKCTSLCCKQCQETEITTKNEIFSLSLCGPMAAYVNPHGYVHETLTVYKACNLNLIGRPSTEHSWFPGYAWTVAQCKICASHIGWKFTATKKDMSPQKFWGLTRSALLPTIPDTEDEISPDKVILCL
test: PROTAC activity at AR-V7/CRBN in human 22Rv1 cells assessed as induction of AR-V7 degradation at 5 uM incubated for 24 hrs by Western blot analysis relative to control
Type: cell-based
assay context: CWR22R
endpoint label: Activity

The molecule identified as CC(C)(c1ccc(OCC(=O)NCCN2CCN(c3cccc4c3C(=O)N(C3CCC(=O)NC3=O)C4=O)CC2)cc1)c1ccc(OCc2cccc(N3CCOCC3)n2)cc1 (stereo not drawn) registered its Activity at < 10%

The molecule identified as CC(C)(c1ccc(OCC(=O)NCCCCNc2ccc3c(c2)C(=O)N(C2CCC(=O)NC2=O)C3=O)cc1)c1ccc(OCC(O)CCl)cc1 (stereo not drawn) registered its Activity at < 10%

The molecule identified as CC(C)(c1ccc(OCc2cccc(N3CCOCC3)n2)cc1)c1ccc(OCC2CCN(c3cccc4c3C(=O)N(C3CCC(=O)NC3=O)C4=O)CC2)cc1 (stereo not drawn) registered its Activity at < 10%
